Cited source: the supplement of paper PMC8149375

Test system: CAKI-1
assay.text: minimum viability across doses, drug + dasatinib, relative to DMSO (fraction); higher = less growth inhibition
test.settings: treatment: drug + dasatinib (fixed dose, not stated); 5 days
// values below are reported minimum viability across doses
The response must contain the number and no unit.

Recorded results for 8 molecules are shown here.
O=C(Nc1ccc(OC(F)(F)F)cc1)c1sccc1NCc1ccnc2ccccc12 [OSI-930] + Cc1nc(Nc2ncc(C(=O)Nc3c(C)cccc3Cl)s2)cc(N2CCN(CCO)CC2)n1 : 0.136
CC(=O)Nc1ccc(NC(=S)NC(=O)c2ccc(C(C)(C)C)cc2)cc1 [Tenovin-1] + Cc1nc(Nc2ncc(C(=O)Nc3c(C)cccc3Cl)s2)cc(N2CCN(CCO)CC2)n1 : 0.498
COc1ccc(S(=O)(=O)N(C(C)=O)c2ccccc2/C=C/c2cc[n+]([O-])cc2)cc1 [HMN-214] + Cc1nc(Nc2ncc(C(=O)Nc3c(C)cccc3Cl)s2)cc(N2CCN(CCO)CC2)n1 : 0.121
Cc1cc(Nc2cc(N3CCN(C)CC3)nc(/C=C/c3ccccc3)n2)n[nH]1.O=C(O)[C@H](O)[C@@H](O)C(=O)O [ENMD-2076] + Cc1nc(Nc2ncc(C(=O)Nc3c(C)cccc3Cl)s2)cc(N2CCN(CCO)CC2)n1 : 0.00949
Cn1c(=O)n(-c2ccc(C(C)(C)C#N)cc2)c2c3cc(-c4cnc5ccccc5c4)ccc3ncc21 [BEZ235 (NVP-BEZ235)] + Cc1nc(Nc2ncc(C(=O)Nc3c(C)cccc3Cl)s2)cc(N2CCN(CCO)CC2)n1 : 0.0361
CC1CCN(C(=O)CC#N)C[C@@H]1N(C)c1ncnc2[nH]ccc12.O=C(O)CC(O)(CC(=O)O)C(=O)O (stereo in doubt) + Cc1nc(Nc2ncc(C(=O)Nc3c(C)cccc3Cl)s2)cc(N2CCN(CCO)CC2)n1 : 0.567
Cc1cccc(-c2nc(C(C)(C)C)[nH]c2-c2ccc3nccnc3c2)n1 + Cc1nc(Nc2ncc(C(=O)Nc3c(C)cccc3Cl)s2)cc(N2CCN(CCO)CC2)n1 : 0.486
Cn1cnc(N)c2ncnc1-2 [3-Methyladenine] + Cc1nc(Nc2ncc(C(=O)Nc3c(C)cccc3Cl)s2)cc(N2CCN(CCO)CC2)n1 : 0.673

We next turn to a different molecule, shown below.
Need minimum viability across doses of CC(=O)NCC(=O)N1[C@H]2CC[C@H]1c1cc(Nc3ncc(C(F)(F)F)c(NC4CCC4)n3)ccc12 + Cc1nc(Nc2ncc(C(=O)Nc3c(C)cccc3Cl)s2)cc(N2CCN(CCO)CC2)n1 , thanks.
0.0773

====

Each entry below lists one item and its recorded AUC of dose-response viability curve value.
Test system: SN12C
assay.text: AUC of dose-response viability curve, drug + dasatinib, normalised to DMSO (arbitrary (AUC of normalised viability)); higher = less growth inhibition
test.settings: treatment: drug + dasatinib (fixed dose, not stated); 5 days

Cl.N=C(N)NC(=N)NCCc1ccccc1 [Phenformin hydrochloride] + Cc1nc(Nc2ncc(C(=O)Nc3c(C)cccc3Cl)s2)cc(N2CCN(CCO)CC2)n1 : 2.36

Please find the next molecule below.
Please give the measured AUC of dose-response viability curve for this molecule: Cc1cn(-c2cc(NC(=O)c3ccc(C)c(Nc4nccc(-c5cccnc5)n4)c3)cc(C(F)(F)F)c2)cn1 [Nilotinib (AMN-107)] + Cc1nc(Nc2ncc(C(=O)Nc3c(C)cccc3Cl)s2)cc(N2CCN(CCO)CC2)n1
2.55
